B1: mRNA-splicing (parent)
chain: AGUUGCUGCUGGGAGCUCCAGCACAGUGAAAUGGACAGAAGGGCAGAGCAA

- Variants of: B1
- EXPERIMENT_SUMMARY: exon inclusion enrichment index; higher = more inclusion; WT1 exon 5 minigene, HEK293
Decision: exon inclusion enrichment index >= 1 yields true, all other cases yield false.

Problem: For this variant, is measured exon inclusion enrichment index 1 or higher? C6A U7C C9A U10C A40C
Result: true

Further cases:
Problem: For this variant, is measured exon inclusion enrichment index 1 or higher? G5U G8U C9U A35U C36U
Result: false

Problem: For this variant, is measured exon inclusion enrichment index 1 or higher? G5A C6G U7C G8A U10C
Result: false

Problem: For this variant, is measured exon inclusion enrichment index 1 or higher? G38A A39U
Result: false

Problem: For this variant, is measured exon inclusion enrichment index 1 or higher? G5A C6G U7G C9A U27C
Result: false

Problem: For this variant, is measured exon inclusion enrichment index 1 or higher? G2U U3C G5U G8U C9U
Result: false

Problem: For this variant, is measured exon inclusion enrichment index 1 or higher? G5C C6A U7C G8A U10A C24U A25U
Result: false

Problem: For this variant, is measured exon inclusion enrichment index 1 or higher? G5A C6G U7G C9A A35U C36G
Result: false

Problem: For this variant, is measured exon inclusion enrichment index 1 or higher? G5C C6U G8C C9U U10C A29G
Result: true

Problem: For this variant, is measured exon inclusion enrichment index 1 or higher? G5C C6G U7C U10C G28U A29U
Result: true

Problem: For this variant, is measured exon inclusion enrichment index 1 or higher? G5C C6G U7C U10C G15A C16U
Result: true

Problem: For this variant, is measured exon inclusion enrichment index 1 or higher? G5A U7C G8A U10C G21A C22U
Result: true

Problem: For this variant, is measured exon inclusion enrichment index 1 or higher? G5U G8U C9U C22G
Result: false
